This collection of values is drawn from PubChem BioAssay (NCI).

# assay-procedure: NCI Yeast Anticancer Drug Screen. Data for the rad18 strain (AID 177)
# condition-details: S. cerevisiae rad18 mutant growth inhibition; at 3.7 µM; stronger effect = higher value
About 79,000 compounds went through this panel and 15% of them were active in at least one assay; those are over-represented in the sample as a whole.
Give measured growth inhibition for each item. Keep answers brief.
Supply the numeric figure in %, leaving out any unit text.

[Q] What value of growth inhibition has been recorded for this entry: CCc1cccc(C(C)C)c1NC1=C([n+]2ccc(C)cc2)C(=O)c2ccccc2C1=O
[A] -3

[Q] # input compound: CCCCCCCCCC[Se]C#N ; wanted: its growth inhibition
[A] 6

[Q] Could you share which growth inhibition value was measured for CNCC(O)c1ccc(O)c(O)c1.[Pt].c1ccc([PH+](c2ccccc2)c2ccccc2)cc1.c1ccc([PH+](c2ccccc2)c2ccccc2)cc1 ?
[A] 2

[Q] Requested field: growth inhibition. Item: O=c1oc2ccccc2c(O)c1C(c1ccc2ccccc2c1)c1c(O)c2ccccc2oc1=O
[A] 7

[Q] Could you tell me which growth inhibition is on file for O=C(O)CCCOc1cc(Cl)c(Cl)cc1Cl ?
[A] -21

[Q] Any idea what growth inhibition was measured for CSC(=Nc1ccccc1)N(c1ccccc1)c1nc(=[N+](C)C)ss1 ?
[A] 34

[Q] What does the record list as growth inhibition for CCC1(OC(=O)CN)C(=O)OCc2c1cc1n(c2=O)Cc2cc3ccccc3nc2-1 (stereo not given) ?
[A] 33

[Q] Please give the measured growth inhibition for this compound: CC1CN=C(Nc2ccccc2)S1 (stereo not given)
[A] -54

[Q] Would you mind telling me what growth inhibition value was observed for Cc1c2ccccc2cc2ccccc12 ?
[A] 25

[Q] Given the entry O=c1oc2ccccc2c(O)c1C(c1ccc2c(c1)Cc1ccccc1-2)c1c(O)c2ccccc2oc1=O , report its measured growth inhibition.
[A] 25

[Q] # query: growth inhibition of entry O=C(COc1ccc(Cl)cc1Cl)NO
[A] 4

[Q] Dear colleague, I am looking for the recorded growth inhibition of the following compound: CCOP(=O)(CC(C)P(=O)(OCC)OCC)OCC.C[CH2][Sn]([Cl])([Cl])[CH2]C (stereo not given)
[A] 4

[Q] Item c1cc2c(cc1C1OC[C@H]3[C@@H](c4ccc5c(c4)OCO5)OC[C@@H]13)OCO2 (stereo not given in full) has what recorded growth inhibition?
[A] -6

[Q] Which growth inhibition value belongs to CC12CCC(C1)C(C)(C)C2OC(=O)c1ccccc1N (stereo not given) ?
[A] 5

[Q] Given the compound O=C(O)C1C2c3ccccc3C(c3ccccc32)C1C(=O)O (stereo not given) , what is its reported growth inhibition?
[A] -2

[Q] Please look up its growth inhibition: C/C(=N\NC(N)=O)C(CN1CCOCC1)C(c1ccccc1)c1c(O)c2ccccc2oc1=O (stereo not given)
[A] 0

[Q] Need growth inhibition, item CCOC(=O)C1=C(C(=O)OCC)C2(c3ccccc3)N(O1)c1ccccc1C2(C)C (stereo not given)
[A] -11

[Q] Quick check: growth inhibition of CC1=C2C(=C[C@@](C)(CO)[C@@H]2O)C(=O)[C@](C)(O)C12CC2 ?
[A] 74

[Q] Entry under review: CC[C@]1(O)CC(OC2CC(N(C)C)C(O)C(C)O2)c2c(cc3c(c2O)C(=O)c2c(O)cccc2C3=O)[C@@H]1C(=O)OC (stereo not given in full) . Reported growth inhibition?
[A] -9

[Q] Data request, read-out growth inhibition, for CC[PH+](CC)CC.CC[PH+](CC)CC.[Au]
[A] 16

###

# assay-procedure: NCI Yeast Anticancer Drug Screen. Data for the rad14 strain (AID 159);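 note: 0% = growth of vehicle-treated control cultures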
# condition-details: S. cerevisiae rad14 strain growth inhibition; at 33.0 µM; stronger effect = higher value
Compounds without any hit were thinned out: in the full panel of roughly 79,000, 15% have a hit.
Please provide measured growth inhibition for the entries that follow.
API: value field is a number in %; no unit string.

[Q] Please report the recorded growth inhibition for CC1(C)N=C(N)N=C(N)N1c1cccc(N)c1.[Sn] .
[A] 18

[Q] Which measured growth inhibition value corresponds to O=c1c2ccccc2[se]n1-c1cccnc1 ?
[A] 89

[Q] What measured growth inhibition goes with OC1(c2ccccc2)CC2CCC(C1)N2CCCC(O)(c1ccccc1)c1ccccc1 (centres undefined) ?
[A] 53

[Q] Look up growth inhibition: Cn1cnc(N)c1C(=N)[Se]
[A] 91

###

Exercise: state measured growth inhibition for each of the compounds provided.
# assay-procedure: NCI Yeast Anticancer Drug Screen. Data for the mec2-1 strain (AID 157)
# condition-details: S. cerevisiae mec2-1 strain, at 50.0 µM (retest, dose inferred, filed as 5.0), stronger effect = higher value
Compounds without any hit were thinned out: in the full panel of roughly 79,000, 15% have a hit.
Write down the numeric answer in % and omit the unit.

[Q] Recorded growth inhibition of CCn1c(O)c(C(=O)NC(C)c2ccc([N+](=O)[O-])cc2)c(=O)n(CC)c1=S (stereo not given) , please.
[A] 96

[Q] Fill in: growth inhibition of C=CCCCCCCCCC(=O)O (tested in a mixture with another compound) is ___
[A] 8

[Q] What growth inhibition value was documented for this compound, O=[N+]([O-])C(Br)CO (stereo not given) ?
[A] 99

[Q] Reported growth inhibition for O=S(=O)(O)c1ccc(Cl)cc1.[Cd] : what is it?
[A] 46

[Q] Entry O=[As]c1ccc([N+](=O)[O-])cc1 (stereo not given) : reported growth inhibition = ?
[A] 100

###

# assay-procedure: NCI Yeast Anticancer Drug Screen. Data for the mec2-1 strain (AID 157)
# condition-details: S. cerevisiae mec2-1 strain, at 50.0 µM, stronger effect = higher value
# Experimental: Growth inhibition of yeast strains with defined genetic alterations is measured as a screen for potential anti-cancer activity. Selected strains with alterations in DNA damage repair or cell cycle control were exposed to compounds and growth inhibition was measured relative to vehicle treated controls. The strain used in this assay is mec2-1
Compounds without any hit were thinned out: in the full panel of roughly 79,000, 15% have a hit.
readout-kind: growth inhibition (%)
Write down the numeric answer in % and omit the unit.

[Q] Param item = CCCOc1ccc(/C=C/[N+](=O)[O-])cc1 ; retrieve measured growth inhibition.
[A] 96.3

[Q] Quick check: growth inhibition of CC(Cc1ccccc1)N(C)Cc1ccc(-c2ccccc2)o1 (stereo unspecified) ?
[A] 34

[Q] For the molecule shown here, COc1cc(C2c3cc4c(cc3[C@@H](Nc3ccc(F)cc3)C3COC(=O)[C@H]23)OCO4)cc(OC)c1O (stereo partly specified) , give the reported growth inhibition.
[A] 91.2

[Q] Fill blank: measured growth inhibition of the molecule S=C1NC2(CCCCC2)NC12CCCCC2 is ____.
[A] 4.85

[Q] Which growth inhibition value is on record for O=P(Nc1cccc(Cl)c1)(Oc1ccccc1)N(CCCl)CCCl (stereo unspecified) ?
[A] 90.2

[Q] Form field: reported growth inhibition of COC1=C(C)C(=O)c2c(c(COC(N)=O)c3n2CC2C3N2C)C1=O (stereo unspecified)
[A] 95.3

###

# assay-procedure: NCI Yeast Anticancer Drug Screen. Data for the sgs1 mgt1 strain (AID 161);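 note: 0% = growth of cultures given vehicle only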
# condition-details: S. cerevisiae sgs1 mgt1 strain, at 50.0 µM (retest, dose inferred, filed as 5.0)
About 79,000 compounds went through this panel and 15% of them were active in at least one assay; those are over-represented in the sample as a whole. Calls of active or inactive are those of the source. Rule as the data show it: active = growth inhibition above about 70%; inactive = the rest.
Outcome (select one): y (active), n (inactive)

[Q] Hi team, can someone confirm the assay call for O=C(C1C(c2ccccc2)N1C(c1ccccc1)c1ccccc1)C1C(c2ccccc2)N1C(c1ccccc1)c1ccccc1 (stereo not given) ?
[A] y

[Q] What outcome does the record of this test show for S=P(Nc1ccccc1)(Oc1ccccc1)c1ccccc1 (stereo not given) ?
[A] y

[Q] Answer briefly: the call reported for CC[PH+](CC)CC.CC[PH+](CC)CC.[Au] in this assay.
[A] y

[Q] Short answer needed: outcome of this test for Cc1ccc(S)cc1.[Pb] ?
[A] n

[Q] Hi, do you know how Nc1c(Cl)cccc1C(=O)O came out in this test?
[A] n

[Q] Fill in: this test's call for c1cc2c(c(NC3=NCCN3)c1)CCCC2 is ___
[A] n

[Q] Recorded call for CSc1ccc2c(c1)c(CCN)c(C)n2Cc1ccccc1Cl ?
[A] y

[Q] Per the records of this test, what outcome belongs to CCCN1CN(c2ccccc2)C2(CCN(CCCC(=O)c3ccc(F)cc3)CC2)C1=O ?
[A] n

[Q] How was CCC[CH2][Sn]([CH2]CCC)([O]C(=O)C(N)CSC)[O]C(=O)C(N)CSC (stereo not given) classified in this test?
[A] n

[Q] What was the test verdict on CC(=O)[O-].[Zn].c1ccc(/C(=N\Nc2ccccn2)c2ccccn2)cc1 ?
[A] y

###

# assay-procedure: NCI Yeast Anticancer Drug Screen. Data for the rad52 strain (AID 147);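 note: 0% = growth of vehicle-treated control cultures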
# condition-details: S. cerevisiae rad52 mutant growth inhibition; at 11.0 µM; stronger effect = higher value
Compounds without any hit were thinned out: in the full panel of roughly 79,000, 15% have a hit.
Assignment: determine reported growth inhibition for the given molecules.
Entry rule: numbers only, all in %.

[Q] I am curious: what growth inhibition value has been reported for Cc1ccc2c(c1)C1(C)c3cc(C)ccc3SP1S2 (stereo not drawn) ?
[A] 20

[Q] Fill in the blank: the reported growth inhibition of S=C1NC2(CCCCC2)NC12CCCCC2 is ____.
[A] -3

[Q] What measured growth inhibition goes with CCCCN(CCCC)CC(C(C)=O)C(c1ccccc1)c1c(O)c2ccccc2oc1=O (stereo not drawn) ?
[A] 2

[Q] I am curious: what growth inhibition value has been reported for CC1CN1C1=C(Cl)C(=O)C(N2CC2C)=C(Cl)C1=O (stereo not drawn) ?
[A] 64

[Q] Reported growth inhibition, molecule Oc1c(Br)cc(Br)cc1Br : ____
[A] 3

[Q] Which growth inhibition is reported for this molecule? COc1cccc2c1C(=O)c1c(O)c3c(c(O)c1C2=O)C[C@@](O)(/C(C)=N\O)C[C@@H]3OC1CC(N)C(O)C(C)O1 (stereo partly drawn)
[A] 61

[Q] Returns the measured growth inhibition for the input molecule. Input: C[CH2][Sn]1([CH2]C)[O]C2C(O)OC(CO)C(O)C2[O]1 (stereo not drawn)
[A] 19

[Q] Query (molecule): O=C(Nc1cc(Cl)ccc1Cl)C(Cl)(Cl)Cl ; field requested: growth inhibition
[A] 12
